Measured IC50 of individual entries
Experimental System: human SCD1 (Homo sapiens (Human))
Sequence (O00767 whole entry): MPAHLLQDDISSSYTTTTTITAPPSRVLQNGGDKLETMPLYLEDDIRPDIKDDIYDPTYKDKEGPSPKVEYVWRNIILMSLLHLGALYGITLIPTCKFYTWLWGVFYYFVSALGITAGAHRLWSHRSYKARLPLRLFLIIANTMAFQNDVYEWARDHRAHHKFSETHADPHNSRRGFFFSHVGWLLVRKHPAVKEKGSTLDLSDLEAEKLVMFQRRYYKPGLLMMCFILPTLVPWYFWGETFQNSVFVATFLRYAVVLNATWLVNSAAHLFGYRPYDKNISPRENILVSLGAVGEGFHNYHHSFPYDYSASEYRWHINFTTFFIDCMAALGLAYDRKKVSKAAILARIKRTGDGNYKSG
Test Details: Yeast growth assay, strain expressing human SCD1 as the sole desaturase (reduced growth as surrogate for SCD inhibition)
Assay type: cell-based
Condition Context: yeast with OLE1 deleted expressing human SCD1 from a plasmid; growth read as OD600 after 40 h at 30° C.; top drug concentration 33.3 μM
Provide the reading as a plain figure in µM.

// below: answered molecules
query: Supply measured IC50 of O=C(c1cc(-c2ccc3c(c2)OCO3)on1)N1CCCC12CC2 [Compound 371] in your reply.
result: 30.4

query: Supply measured IC50 of C#Cc1cc(C(=O)Nc2cnn(Cc3cccc(F)c3)c2)no1 [Compound 154] in your reply.
result: 1.6

query: Supply measured IC50 of O=C(c1cc(-c2ccc3c(c2)OCO3)on1)N1C[C@@H](F)C[C@H]1c1ccccc1 [Compound 427] in your reply.
result: 30

query: Supply measured IC50 of COc1ccc(-c2cc(C(=O)N3CC(c4ccccc4)C3)no2)nn1 [Compound 255] in your reply.
result: 23

Further cases:
query: Supply measured IC50 of O=C(c1cc(-c2ccccc2)on1)N1CC(c2ccccc2)C1 [Compound 212] in your reply.
result: 4.52
